TESTED_SYSTEM: Neuronal acetylcholine receptor; alpha3/beta4 (Homo sapiens, UniProt P30926+P32297)
METHOD_SUMMARY: Antagonist activity at alpha3beta4 nAChR (unknown origin) expressed in Xenopus laevis oocytes assessed as inhibition of Ach-induced channel activation at -100 mV holding potential treated for 1 min by two electrode voltage-clamp assay relative to PhTX-343 IC50
Format: cell-based
Measured Ratio IC50 values are reported for all entries that follow.

Some compounds with recorded Ratio IC50:
NCCCNCCCCNCCCNC(=O)[C@H](CC1CCCCC1)NC(=O)C1CCCC1	11.8
NCCCNCCCCNCCCNC(=O)[C@H](CC1CCCCC1)NC(=O)c1ccc(-c2ccccc2)cc1	2.7
CCCC(=O)N[C@@H](Cc1ccc(O)cc1)C(=O)NCCCNC[C@H]1C[C@H]1CNCCCN	5.3
CCCC(=O)N[C@@H](Cc1ccc(O)cc1)C(=O)NCCCNC[C@@H]1C[C@H]1CNCCCN	8.3
NCCCNCCCCNCCCNC(=O)[C@H](CC1CCCCC1)NC(=O)C1CCC1	7.1
NCCCNCCCCNCCCNC(=O)[C@H](CC1CCCCC1)NC(=O)C1CC1	2.9
NCCCNCCCCNCCCNC(=O)[C@H](CC1CCCCC1)NC(=O)CC1CC2CCC1C2 (some centres not stated)	8.1
NCCCNCCCCNCCCNC(=O)[C@H](CC1CCCCC1)NC(=O)C1CCCCCC1	13.9
CCCC(=O)N[C@@H](CC1CCCCC1)C(=O)NCCCNCCCCNCCCN	2.9
NCCCNCCCCNCCCNC(=O)[C@H](Cc1ccc(O)cc1)NC(=O)C1CCCC1	13.4

The recorded Ratio IC50 for entry NCCCNCCCCNCCCNC(=O)[C@H](CC1CCCCC1)NC(=O)Cc1cccc2ccccc12 equals 47.8

The recorded Ratio IC50 for entry NCCCNCCCCNCCCNC(=O)[C@H](CC1CCCCC1)NC(=O)/C=C/c1ccccc1 equals 21.9

The recorded Ratio IC50 for entry CCCC(=O)N[C@@H](Cc1ccccc1)C(=O)NCCCNCCCCNCCCN equals 8.2

The recorded Ratio IC50 for entry CCCC(=O)N[C@@H](CCc1ccccc1)C(=O)NCCCNCCCCNCCCN equals 4.4

The recorded Ratio IC50 for entry NCCCNCCCCNCCCNC(=O)[C@H](CC1CCCCC1)NC(=O)C1CCCCC1 equals 3.5

The recorded Ratio IC50 for entry NCCCNCCCCNCCCNC(=O)[C@H](CC1CCCCC1)NC(=O)c1ccccc1 equals 20.7

The recorded Ratio IC50 for entry NCCCNCCCCNCCCNC(=O)[C@H](Cc1ccc(O)cc1)NC(=O)C1CCCCC1 equals 16.6

---

Measured pIC50 values are reported for all entries that follow.
TESTED_SYSTEM: Neuronal acetylcholine receptor; alpha4/beta2 (Homo sapiens, UniProt P17787+P43681)
Sequence (P17787 whole entry): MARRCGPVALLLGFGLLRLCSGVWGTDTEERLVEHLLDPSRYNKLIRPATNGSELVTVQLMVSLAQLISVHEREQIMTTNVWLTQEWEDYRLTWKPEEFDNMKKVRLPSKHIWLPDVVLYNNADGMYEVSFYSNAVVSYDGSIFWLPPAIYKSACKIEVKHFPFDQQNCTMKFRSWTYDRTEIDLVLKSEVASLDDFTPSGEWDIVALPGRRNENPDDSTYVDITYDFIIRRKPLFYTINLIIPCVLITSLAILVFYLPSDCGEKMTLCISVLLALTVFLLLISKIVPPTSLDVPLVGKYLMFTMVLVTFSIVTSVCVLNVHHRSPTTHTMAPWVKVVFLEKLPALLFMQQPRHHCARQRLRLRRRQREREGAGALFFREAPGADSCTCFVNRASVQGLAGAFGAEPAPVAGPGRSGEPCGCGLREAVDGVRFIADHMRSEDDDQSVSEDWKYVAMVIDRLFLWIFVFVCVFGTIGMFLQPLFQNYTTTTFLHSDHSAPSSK
Sequence (P43681 whole entry): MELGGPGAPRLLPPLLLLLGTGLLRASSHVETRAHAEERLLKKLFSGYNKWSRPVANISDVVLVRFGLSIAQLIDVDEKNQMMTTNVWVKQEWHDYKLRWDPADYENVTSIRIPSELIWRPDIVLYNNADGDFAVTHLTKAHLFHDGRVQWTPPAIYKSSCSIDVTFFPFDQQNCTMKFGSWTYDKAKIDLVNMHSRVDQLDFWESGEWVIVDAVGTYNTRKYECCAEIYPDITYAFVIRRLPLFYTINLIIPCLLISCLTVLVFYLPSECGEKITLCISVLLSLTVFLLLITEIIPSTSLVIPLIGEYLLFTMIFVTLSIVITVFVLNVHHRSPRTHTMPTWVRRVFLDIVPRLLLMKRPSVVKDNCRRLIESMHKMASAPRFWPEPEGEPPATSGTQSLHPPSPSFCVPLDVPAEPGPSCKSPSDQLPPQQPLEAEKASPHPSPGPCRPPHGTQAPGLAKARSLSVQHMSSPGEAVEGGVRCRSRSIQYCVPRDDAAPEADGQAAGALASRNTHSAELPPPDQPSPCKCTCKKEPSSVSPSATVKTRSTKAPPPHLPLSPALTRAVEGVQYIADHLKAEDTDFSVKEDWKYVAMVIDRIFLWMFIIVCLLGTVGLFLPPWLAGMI
METHOD_SUMMARY: Antagonist activity at alpha4beta2 nAChR (unknown origin) expressed in Xenopus laevis oocytes assessed as inhibition of Ach-induced channel activation at -100 mV holding potential treated for 1 min by two electrode voltage-clamp assay
# pIC50 = -log10(concentration in molar units)

CCCC(=O)N[C@@H](Cc1ccc(O)cc1)C(=O)NCCCNCCCCNCCCN	7.10
NCCCNCCCCNCCCNC(=O)[C@H](CC1CCCCC1)NC(=O)/C=C/c1ccccc1	7.92
NCCCNCCCCNCCCNC(=O)[C@H](CC1CCCCC1)NC(=O)C1CC1	6.95

# pIC50 measured on Neuronal acetylcholine receptor; alpha4/beta2 (Homo sapiens, UniProt P17787+P43681) for item NCCCNCCCCNCCCNC(=O)[C@H](CC1CCCCC1)NC(=O)c1ccccc1 = 7.67

# pIC50 measured on Neuronal acetylcholine receptor; alpha4/beta2 (Homo sapiens, UniProt P17787+P43681) for item CCCC(=O)N[C@@H](CCc1ccccc1)C(=O)NCCCNCCCCNCCCN = 7.68

# pIC50 measured on Neuronal acetylcholine receptor; alpha4/beta2 (Homo sapiens, UniProt P17787+P43681) for item CCCC(=O)N[C@@H](CC1CCCCC1)C(=O)NCCCNCCCCNCCCN = 8.59

# pIC50 measured on Neuronal acetylcholine receptor; alpha4/beta2 (Homo sapiens, UniProt P17787+P43681) for item CCCC(=O)N[C@@H](Cc1ccc(O)cc1)C(=O)NCCCNC[C@@H]1C[C@H]1CNCCCN = 7.35

# pIC50 measured on Neuronal acetylcholine receptor; alpha4/beta2 (Homo sapiens, UniProt P17787+P43681) for item NCCCNCCCCNCCCNC(=O)[C@H](CC1CCCCC1)NC(=O)CC1CC2CCC1C2 (stereo partly drawn) = 7.59
